B1: WW domain-containing transcription regulator protein 1, residues 116 to 162; numbered along this chain, Q9GZV5 (parent)
chain: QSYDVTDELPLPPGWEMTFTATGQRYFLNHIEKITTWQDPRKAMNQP

Variants of: B1
Test: abundance fitness (aPCA) (normalised: wild type 0, dead -1); higher = more abundant; growth selection in yeast, the domain comes from the species named
Conditions: Homo sapiens
variants and their reported abundance fitness
Would you mind answering with just the numeric figure?

K42D : -0.26

Given the entry E32L , report its measured abundance fitness.
0.201

Given the entry L9I , report its measured abundance fitness.
0.022

Given the entry T22H , report its measured abundance fitness.
-0.184

Given the entry H30F , report its measured abundance fitness.
-0.484
